Tgt: Voltage-gated inwardly rectifying potassium channel KCNH2 (Homo sapiens)
Sequence (Q12809 whole entry): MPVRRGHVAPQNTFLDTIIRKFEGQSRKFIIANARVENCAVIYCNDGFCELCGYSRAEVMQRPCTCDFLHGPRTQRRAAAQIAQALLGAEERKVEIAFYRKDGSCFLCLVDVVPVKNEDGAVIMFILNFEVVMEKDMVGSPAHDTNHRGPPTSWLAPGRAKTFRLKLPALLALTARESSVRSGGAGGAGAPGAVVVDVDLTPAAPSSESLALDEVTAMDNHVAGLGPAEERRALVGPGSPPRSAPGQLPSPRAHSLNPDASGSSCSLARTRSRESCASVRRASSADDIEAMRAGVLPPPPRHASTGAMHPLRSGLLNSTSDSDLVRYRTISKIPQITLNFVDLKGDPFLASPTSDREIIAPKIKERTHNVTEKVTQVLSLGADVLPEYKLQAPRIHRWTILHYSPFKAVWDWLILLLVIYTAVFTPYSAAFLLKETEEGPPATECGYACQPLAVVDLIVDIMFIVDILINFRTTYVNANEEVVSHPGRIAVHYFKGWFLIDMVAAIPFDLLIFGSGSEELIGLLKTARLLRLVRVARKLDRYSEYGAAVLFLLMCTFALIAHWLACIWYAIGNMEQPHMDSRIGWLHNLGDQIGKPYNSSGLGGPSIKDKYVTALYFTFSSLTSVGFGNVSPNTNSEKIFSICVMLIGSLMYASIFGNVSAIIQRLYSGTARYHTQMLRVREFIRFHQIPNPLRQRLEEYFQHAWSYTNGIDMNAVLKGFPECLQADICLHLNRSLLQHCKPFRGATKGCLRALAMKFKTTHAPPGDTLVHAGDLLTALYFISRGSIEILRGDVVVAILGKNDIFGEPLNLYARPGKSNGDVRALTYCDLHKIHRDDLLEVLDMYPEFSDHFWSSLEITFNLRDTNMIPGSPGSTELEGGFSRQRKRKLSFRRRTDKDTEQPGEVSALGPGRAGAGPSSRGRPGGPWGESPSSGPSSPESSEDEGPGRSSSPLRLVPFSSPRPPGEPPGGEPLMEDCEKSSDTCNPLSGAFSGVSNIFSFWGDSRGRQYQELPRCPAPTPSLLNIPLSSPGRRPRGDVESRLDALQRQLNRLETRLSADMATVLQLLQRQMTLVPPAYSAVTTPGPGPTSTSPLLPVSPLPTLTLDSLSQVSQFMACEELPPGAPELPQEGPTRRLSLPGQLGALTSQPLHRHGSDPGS
# maps each entry to its IC50
The reply should contain only the number, in µM.

                                   compound                                       tgt  reported_property  result_value
0  Cc1cc(N2CCC(N3CCCC3C)C2)ccc1NC(=O)c1ccccc1F (configuration not stated)  Voltage-gated inwardly rectifying potassium channel KCNH2 (Homo sapiens)               IC50             1

Next up:
So what does the record say about IC50 for Cc1cc(N2CCC(N3CCCC3C)C2)ccc1NC(=O)c1cc(F)ccc1C (configuration not stated) ?
0.48

FYI, the data here is from ChEMBL document CHEMBL2390865.
